# assay_summary: Ratio of drug concentration in liver to plasma in rat at 5 mg/kg, po measured upto 24 hrs
# Format: ADME, organism-based
# condition_summary: liver and plasma
Measured Kp at 24 h accompanies every entry in the list below.
outcome_measure: Kp at 24 h

CC[C@@H]1C[C@H](C)CC/C=C\[C@@H]2C[C@@]2(C(=O)NS(=O)(=O)C2CC2)NC(=O)[C@@H]2C[C@@H](Oc3ncc(OC)c4ccccc34)CN2C(=O)[C@H]1NC(=O)OC(C)(C)C(F)(F)F 33
CC[C@@H]1C[C@H](C)CC/C=C\[C@@H]2C[C@@]2(C(=O)NS(=O)(=O)C2(C)CC2)NC(=O)[C@@H]2C[C@@H](Oc3nccc4cc(OC)c(F)cc34)CN2C(=O)[C@H]1NC(=O)OC(C)(C)C(F)(F)F 1.5
CC[C@@H]1C[C@H](C)CC/C=C\[C@@H]2C[C@@]2(C(=O)NS(=O)(=O)C2(C)CC2)NC(=O)[C@@H]2C[C@@H](Oc3ncc(OC)c4ccccc34)CN2C(=O)[C@H]1NC(=O)OC(C)(C)C(F)(F)F 12
COc1cnc(O[C@@H]2C[C@H]3C(=O)N[C@]4(C(=O)NS(=O)(=O)C5(C)CC5)C[C@H]4/C=C\CC[C@@H](C)C[C@@H](C)[C@H](NC(=O)OC(C)(C)C(F)(F)F)C(=O)N3C2)c2ccccc12 25
CC[C@@H]1C[C@H](C)CC/C=C\[C@@H]2C[C@@]2(C(=O)NS(=O)(=O)C2(C)CC2)NC(=O)[C@@H]2C[C@@H](Oc3ncc(OC)c4ccc(F)cc34)CN2C(=O)[C@H]1NC(=O)OC(C)(C)C(F)(F)F 5

###

# assay_summary: Drug concentration in dog plasma at 3 mg/kg, po measured upto 24 hrs
# Format: ADME, organism-based, Canis lupus familiaris
# condition_summary: read-out: Ct
outcome_measure: concentration at 24 h (nM)

CC[C@@H]1C[C@H](C)CC/C=C\[C@@H]2C[C@@]2(C(=O)NS(=O)(=O)C2(C)CC2)NC(=O)[C@@H]2C[C@@H](Oc3nccc4cc(OC)c(F)cc34)CN2C(=O)[C@H]1NC(=O)OC(C)(C)C(F)(F)F 838
CC[C@@H]1C[C@H](C)CC/C=C\[C@@H]2C[C@@]2(C(=O)NS(=O)(=O)C2(C)CC2)NC(=O)[C@@H]2C[C@@H](Oc3ncc(OC)c4ccc(F)cc34)CN2C(=O)[C@H]1NC(=O)OC(C)(C)C(F)(F)F 709
[2H]C([2H])([2H])Oc1cc2ccnc(O[C@@H]3C[C@H]4C(=O)N[C@]5(C(=O)NS(=O)(=O)C6(C)CC6)C[C@H]5/C=C\CC[C@@H](C)C[C@@H](CC)[C@H](NC(=O)OC(C)(C)C(F)(F)F)C(=O)N4C3)c2cc1F 163

###

# assay_summary: Drug concentration in rat plasma at 15 mg/kg, po measured upto 24 hrs
# Format: ADME, organism-based
# condition_summary: read-out: Ct
outcome_measure: concentration at 24 h (nM)

COc1cnc(O[C@@H]2C[C@H]3C(=O)N[C@]4(C(=O)NS(=O)(=O)C5CC5)C[C@H]4/C=C\CC[C@@H](C)C[C@@H](C)[C@H](NC(=O)OC(C)(C)C(F)(F)F)C(=O)N3C2)c2ccccc12 14

###

# assay_summary: Inhibition of recombinant full length NS3/4A protease in Hepatitis C virus subtype 3a infected in human HuH7 cells using Ac-Asp-Glu-Asp (EDANS)-Glu-Glu-Abu-(COO) Ala-Ser-Lys (DABCYL)-NH2 as substrate by FRET assay
# condition_summary: Huh-7
pIC50: −log10 of the molar value.
outcome_measure: pIC50

CC[C@@H]1CCCC/C=C\[C@@H]2C[C@@]2(C(=O)NS(=O)(=O)C2CC2)NC(=O)[C@@H]2C[C@@H](Oc3ncc(OC)c4ccc(Cl)cc34)CN2C(=O)[C@H]1NC(=O)OC(C)(C)C(F)(F)F 7.53
COc1cnc(O[C@@H]2C[C@H]3C(=O)N[C@]4(C(=O)NS(=O)(=O)C5CC5)C[C@H]4/C=C\CC[C@@H](C)C[C@@H](C)[C@H](NC(=O)OC(C)(C)C)C(=O)N3C2)c2cc(Cl)ccc12 8.36
[2H]C([2H])([2H])Oc1cc2ccnc(O[C@@H]3C[C@H]4C(=O)N[C@]5(C(=O)NS(=O)(=O)C6(C)CC6)C[C@H]5/C=C\CC[C@@H](C)C[C@@H](CC)[C@H](NC(=O)OC(C)(C)C(F)(F)F)C(=O)N4C3)c2cc1F 8.32
CC[C@@H]1C[C@H](C)CC/C=C\[C@@H]2C[C@@]2(C(=O)NS(=O)(=O)C2(C)CC2)NC(=O)[C@@H]2C[C@@H](Oc3ncc(OC)c4ccccc34)CN2C(=O)[C@H]1NC(=O)OC(C)(C)C(F)(F)F 8.72
COc1cnc(O[C@@H]2C[C@H]3C(=O)N[C@]4(C(=O)NS(=O)(=O)C5CC5)C[C@H]4/C=C\CCCC[C@@H](C)[C@H](NC(=O)OC(C)(C)C(F)(F)F)C(=O)N3C2)c2ccccc12 8.66

###

# assay_summary: Metabolic stability in human liver microsomes assessed as half-life incubated for 5 to 45 mins in presence of NADPH by LC-MS analysis
# Assay type: ADME, Microsome
# condition_summary: time 5-45 min
Decision: half-life beneath 30 min gives Met; half-life meeting or exceeding 30 min gives Not met.

CC[C@@H]1C[C@H](C)CC/C=C\[C@@H]2C[C@@]2(C(=O)NS(=O)(=O)C2(C)CC2)NC(=O)[C@@H]2C[C@@H](Oc3nccc4cc(OC)c(F)cc34)CN2C(=O)[C@H]1NC(=O)OC(C)(C)C(F)(F)F Met
COc1cnc(O[C@@H]2C[C@H]3C(=O)N[C@]4(C(=O)NS(=O)(=O)C5CC5)C[C@H]4/C=C\CCCC[C@@H](C)[C@H](NC(=O)OC(C)(C)C(F)(F)F)C(=O)N3C2)c2ccccc12 Met
[2H]C([2H])([2H])Oc1cc2ccnc(O[C@@H]3C[C@H]4C(=O)N[C@]5(C(=O)NS(=O)(=O)C6(C)CC6)C[C@H]5/C=C\CC[C@@H](C)C[C@@H](CC)[C@H](NC(=O)OC(C)(C)C(F)(F)F)C(=O)N4C3)c2cc1F Not met
CC[C@@H]1C[C@H](C)CC/C=C\[C@@H]2C[C@@]2(C(=O)NS(=O)(=O)C2CC2)NC(=O)[C@@H]2C[C@@H](Oc3ncc(OC)c4ccccc34)CN2C(=O)[C@H]1NC(=O)OC(C)(C)C Met
COc1cnc(O[C@@H]2C[C@H]3C(=O)N[C@]4(C(=O)NS(=O)(=O)C5CC5)C[C@H]4/C=C\CCCC[C@@H](C)[C@H](NC(=O)OC(C)(C)C)C(=O)N3C2)c2cc(Cl)ccc12 Met

###

# assay_summary: AUC (0 to 24 hrs) in rat at 15 mg/kg, po
# Format: ADME, organism-based
# Parameters: time < 24 hr, route oral, dose 15 mg/kg
# condition_summary: in vivo
outcome_measure: AUC(0-t) at 24 h

COc1cnc(O[C@@H]2C[C@H]3C(=O)N[C@]4(C(=O)NS(=O)(=O)C5CC5)C[C@H]4/C=C\CC[C@@H](C)C[C@@H](C)[C@H](NC(=O)OC(C)(C)C(F)(F)F)C(=O)N3C2)c2ccccc12 11.7 µM·h

###

# assay_summary: Metabolic stability in human liver microsomes assessed as half-life incubated for 5 to 45 mins in presence of NADPH by LC-MS analysis
# Assay type: ADME, Microsome
# condition_summary: time 5-45 min
outcome_measure: half-life (min)

COc1cnc(O[C@@H]2C[C@H]3C(=O)N[C@]4(C(=O)NS(=O)(=O)C5CC5)C[C@H]4/C=C\CCCC[C@@H](C)[C@H](NC(=O)OC(C)(C)C(F)(F)F)C(=O)N3C2)c2cc(Cl)ccc12 30.3
CC[C@@H]1CCCC/C=C\[C@@H]2C[C@@]2(C(=O)NS(=O)(=O)C2CC2)NC(=O)[C@@H]2C[C@@H](Oc3ncc(OC)c4ccc(Cl)cc34)CN2C(=O)[C@H]1NC(=O)OC(C)(C)C(F)(F)F 48
COc1cnc(O[C@@H]2C[C@H]3C(=O)N[C@]4(C(=O)NS(=O)(=O)C5CC5)C[C@H]4/C=C\CCCCC[C@H](NC(=O)OC(C)(C)C)C(=O)N3C2)c2cc(Cl)ccc12 6.4
C[C@@H]1CC/C=C\[C@@H]2C[C@@]2(C(=O)NS(=O)(=O)C2CC2)NC(=O)[C@@H]2C[C@@H](Oc3nccc4ccc(F)cc34)CN2C(=O)[C@@H](NC(=O)OC(C)(C)C(F)(F)F)[C@H](C)C1 10
COc1cnc(O[C@@H]2C[C@H]3C(=O)N[C@]4(C(=O)NS(=O)(=O)C5CC5)C[C@H]4/C=C\CC[C@@H](C)C[C@@H](C)[C@H](NC(=O)OC(C)(C)C(F)(F)F)C(=O)N3C2)c2ccccc12 11.9
CC[C@@H]1C[C@H](C)CC/C=C\[C@@H]2C[C@@]2(C(=O)NS(=O)(=O)C2(C)CC2)NC(=O)[C@@H]2C[C@@H](Oc3ncc(OC)c4ccccc34)CN2C(=O)[C@H]1NC(=O)OC(C)(C)C(F)(F)F 23
CC[C@@H]1C[C@H](C)CC/C=C\[C@@H]2C[C@@]2(C(=O)NS(=O)(=O)C2CC2)NC(=O)[C@@H]2C[C@@H](Oc3ncc(OC)c4ccccc34)CN2C(=O)[C@H]1NC(=O)OC(C)(C)C(F)(F)F 37.7
CC[C@@H]1C[C@H](C)CC/C=C\[C@@H]2C[C@@]2(C(=O)NS(=O)(=O)C2(C)CC2)NC(=O)[C@@H]2C[C@@H](Oc3ncc(OC)c4ccc(F)cc34)CN2C(=O)[C@H]1NC(=O)OC(C)(C)C(F)(F)F 43
COc1cnc(O[C@@H]2C[C@H]3C(=O)N[C@]4(C(=O)NS(=O)(=O)C5CC5)C[C@H]4/C=C\CC[C@@H](C)C[C@@H](C)[C@H](NC(=O)OC(C)(C)C)C(=O)N3C2)c2cc(Cl)ccc12 6.7
